Item-by-item account of Activity
Test system: UniProt P08183
Sequence (P08183 whole entry): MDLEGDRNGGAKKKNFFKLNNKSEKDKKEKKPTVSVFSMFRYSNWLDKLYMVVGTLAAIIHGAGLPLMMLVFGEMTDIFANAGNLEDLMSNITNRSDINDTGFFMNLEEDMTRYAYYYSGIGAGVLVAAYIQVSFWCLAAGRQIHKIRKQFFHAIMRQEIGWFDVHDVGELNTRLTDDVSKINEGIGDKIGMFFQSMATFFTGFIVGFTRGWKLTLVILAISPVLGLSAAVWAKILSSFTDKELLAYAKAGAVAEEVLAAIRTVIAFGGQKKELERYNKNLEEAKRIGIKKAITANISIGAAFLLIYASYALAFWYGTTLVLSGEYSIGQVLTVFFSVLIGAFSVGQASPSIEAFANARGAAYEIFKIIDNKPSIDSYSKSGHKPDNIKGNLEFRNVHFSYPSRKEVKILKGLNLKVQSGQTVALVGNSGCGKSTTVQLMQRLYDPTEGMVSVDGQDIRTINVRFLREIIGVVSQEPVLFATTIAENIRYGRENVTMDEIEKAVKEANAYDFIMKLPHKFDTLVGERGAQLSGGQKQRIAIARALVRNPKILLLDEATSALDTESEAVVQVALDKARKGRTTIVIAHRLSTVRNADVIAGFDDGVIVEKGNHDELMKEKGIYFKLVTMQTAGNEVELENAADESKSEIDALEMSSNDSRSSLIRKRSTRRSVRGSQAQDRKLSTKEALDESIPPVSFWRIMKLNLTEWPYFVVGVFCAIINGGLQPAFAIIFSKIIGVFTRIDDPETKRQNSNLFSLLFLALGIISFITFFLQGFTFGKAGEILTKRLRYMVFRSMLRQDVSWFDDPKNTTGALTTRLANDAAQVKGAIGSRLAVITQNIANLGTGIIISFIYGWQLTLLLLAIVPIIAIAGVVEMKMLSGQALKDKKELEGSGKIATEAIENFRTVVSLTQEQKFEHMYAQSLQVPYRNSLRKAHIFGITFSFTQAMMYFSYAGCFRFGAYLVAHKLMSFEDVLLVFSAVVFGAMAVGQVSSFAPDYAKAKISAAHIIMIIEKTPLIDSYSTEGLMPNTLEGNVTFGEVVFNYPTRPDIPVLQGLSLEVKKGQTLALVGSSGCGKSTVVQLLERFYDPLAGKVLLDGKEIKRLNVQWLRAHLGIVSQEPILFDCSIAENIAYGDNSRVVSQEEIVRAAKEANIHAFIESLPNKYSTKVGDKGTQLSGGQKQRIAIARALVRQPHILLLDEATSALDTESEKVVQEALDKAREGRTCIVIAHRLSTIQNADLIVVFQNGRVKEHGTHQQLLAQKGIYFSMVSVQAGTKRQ
Method description: Inhibition of human ABCB1 expressed in mouse L5178Y cells assessed as increase in rhodamine-123 accumulation by measuring side scatter count of cells at 2 uM pretreated for 10 mins followed by rhodamine-123 addition after 20 mins by flow cytometry (reference value: 903)
Format: cell-based

Chemical string: CC[C@@H]1CN(C)[C@H]2Cc3c([nH]c4ccccc34)/C(=N/O)C[C@H]1[C@@H]2C(=O)OC
Test system: UniProt P08183
Activity: 789

Chemical string: CC[C@@H]1CN(C)[C@H]2Cc3c([nH]c4ccccc34)[C@@H](O)C[C@H]1[C@@H]2C(=O)OC
Test system: UniProt P08183
Activity: 793

Chemical string: CC[C@H]1CN(C)[C@H]2Cc3c([nH]c4ccccc34)C(=S)C[C@H]1[C@@H]2C(=O)OC
Test system: UniProt P08183
Activity: 1120

Chemical string: CC[C@H]1CN(C)[C@H]2Cc3c([nH]c4ccccc34)[C@@H](O)C[C@H]1[C@@H]2C(=O)OC
Test system: UniProt P08183
Activity: 809

Chemical string: CC[C@@H]1CN(C)[C@H]2Cc3c([nH]c4ccccc34)/C(=N/NC(N)=O)C[C@H]1[C@@H]2C(=O)OC
Test system: UniProt P08183
Activity: 793

Chemical string: CC[C@@H]1CN(C)[C@H]2Cc3c([nH]c4ccccc34)[C@@H](OC(=O)C34CC5CC(CC(C5)C3)C4)C[C@H]1[C@@H]2C(=O)OC
Test system: UniProt P08183
Activity: 1209

Chemical string: CC[C@H]1CN(C)[C@H]2Cc3c([nH]c4ccccc34)/C(=N/O)C[C@H]1[C@@H]2C(=O)OC
Test system: UniProt P08183
Activity: 958
